# system.tested: RSV postfusion F (postF), F deltaFP (respiratory syncytial virus, UniProt P03420 26-513)
# test.description: BLI, IgG on sensor, 100 nM antigen
readout.kind: pKd
The read-out pKd is expressed as -log10 of concentration in moles per litre.

Req: Find the measured pKd of ADI-41404 (antibody, V domains shown, IgG1; also called Ab 696) VH: QVQLVQSGAEVKKPGSSVKVSCKASGGTFSSYGISWVRQAPGQGLEWMGGIIPIFGTVSYAQKFRGRLTITAHEPTSTAYMDLSSLRSEDTAVYYCARINGRGWELSSLNYYYGMDVWGQGTTVTVSS VL: EIVLTQSPGTLSLSPGERGTLSCRASQSVASSYLAWYQQKPGQAPRLLIYGATSRATGIPDRFSGSGSGTDFTLTISRLEPEDFAVYYCQQYGSSLFTFGGGTKVDIK and report it.
Resp: 7.87

Req: Find the measured pKd of ADI-41355 (antibody, V domains shown, IgG1) VH: EVQLVESGGGLVKPGGSLRLSCTASGFTFSDYYMNWIRQAPGKGLEWVSYISGDGNTIYYTDSVKGRFTISRDNAKNSLFLQMNSLRGEDSAVYYCAGPVRGYTYGIFDYWGQGALVTVSS VL: YYVLTQPPSVSVAPGQAARITCGGNNIGSRSVNWYQQKPGQAPVVVIYGDSVRPSGIPERFSGSNSGNTATLTFSRVEAGDEADYYCQVWETNSDHPVVFGGGTKVTVL and report it.
Resp: 8.93

Req: Find the measured pKd of ADI-41444 (antibody, V domains shown, IgG1) VH: EVQLVESGPRLVKPSQTLSLTCTVSGGSIGTGDYHWTWIRQSPGKGLEWIGNIYYNGRTFYNPSLKGRGSISRDASKNQFSLNLSSVSAADTAVYYCARDRAAKGFDHWGQGTLVTVSS VL: DIQLTQSPSTLSASVGDRVTITCRASQNINGWLAWYQQKPGRVPKLLIYKASTLESGVPSRFSGSASGTEFTLTINNLLPDDFATYYCQQYNDYPYTFGQGTKVEIK and report it.
Resp: 9.27

Req: Find the measured pKd of ADI-41446 (antibody, V domains shown, IgG1; also called Ab 730) VH: EVQLLESGGGLVQPGGSLRLSCAASGFTYYSYAMNWVRQAPGKGLEWVSAISGGGDNTFYAESVKGRFTISRDNAKNTLYLQMDSLRAEDTAVYYCAKDLQGYTSLYCFDYWGQGTLVTVSS VL: EIVMTQSPATLSLSPGERAALSCRASQSVFNYVAWYQQKPGQAPRLLIYDTSKRATGIPARFSGSGSGTDFTLTISSLEPEDFAVYYCQHRYNWPGLIFGGGTKVEIK and report it.
Resp: 9.14

Req: Find the measured pKd of ADI-41371 (antibody, V domains shown, IgG1; also called Ab 668) VH: QVQLQESGPRLVKPSQTLSLTCTVSGGSITTGEHYWSWIRQSPGRGLEWIGYISYSGSTYYNPSLKSRVTISVDTSKTRISLNLRSVTAADSAVYYCARDQEDSDYIWGSSRVFDIWGQGTMVTVSS VL: ETTLTQSPGTLSLSPGERATLSCRASQNVGNNYLAWYQQKPGQAPRVLIQDASTRATGIPDRFSGSGSGTDFTLTISRLEPEDFAVYHCQQYGSAPWTFGQGTKVEIK and report it.
Resp: 9.27

Req: Find the measured pKd of ADI-41367 (antibody, V domains shown, IgG1) VH: QVQLVQSGAAVKRPGASVKVSCKASGYTFSTNALHWVRQAPGQSLEWMGWINTDNGIPKYSERFHGRVTFTRDTSASTVYMDLSGLRSGDTAVYYCARDGSSGHWLGLSVLDNWGQGTLVTVSS VL: QSALIQPASVSGSPGQSITISCTGTSDDVGAYNYVSWYQQYPNKAPKLVIYEVSHRPSGVSNRFSGSKSGNTASLTISGLQAEDEADYYCSSYTRSATPYVFGTGTKLTVL and report it.
Resp: 8.33

Req: Find the measured pKd of ADI-41392 (antibody, V domains shown, IgG1) VH: EVQLVESGGGVVQPGGSLRLSCAASGFEFRDYAMHWVRQAPGKGLEWVALISYDGSKIHYADSVQGRFSISRDNSKNSLYLQMNSLRSEDSAKYYCVQDHWLVPAFWGQGAQVTVSS VL: QPVLTQPASVSGSPGQWITISCTGTSSDIGYYDYVSWYQQYPGKAPKLIIYEVSHRPSGVSNRFSGSKSGNTASLSISGLQAEDEADYYCSSYTTSNAGVFGTGTKLTVL and report it.
Resp: 9.45

Where do these numbers come from? They come from patent US20260258115A1.
